Target: T1, H. sapiens CBP NCBD domain, Trp variant (H_sapiens_NCBD 2058-2116, Tyr2108 to Trp) (H. sapiens, UniProt Q92793 2058-2116, a Trp was introduced at the position corresponding to Tyr2108 in human NCBD)
T1 construct: Gly-Ser remains at the N-terminus after thrombin cleavage; Trp introduced at Tyr2108 for the kinetic studies; not shown: His6, N-terminal, cleaved; lipo domain, N-terminal, cleaved
T1 sequence (Q92793 other isoform, or with tags, fused parts or gaps with the stated changes): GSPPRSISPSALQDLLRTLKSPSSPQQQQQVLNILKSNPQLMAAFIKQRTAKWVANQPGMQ
Assay: stopped-flow spectroscopy; Trp variant of NCBD of the same species mixed with CID or N-CID-C; kon from the slope of kobs against CID concentration; koff from displacement of the complex by an excess of wild-type NCBD (average of three experiments); Kd = koff/kon; 20 mM sodium phosphate pH 7.40, 150 mM NaCl, 4 °C; double exponential fit for human and C. milii NCOA3, the high kobs used for Kd
Conditions: both partners purified

{"BINDER": "GSEGRNDEKALLEQLVSFLSGKDETELAELDRALGIDKLVQGGG (domain or fragment, Gly-Ser remains at the N-terminus after thrombin cleavage; also called Src1; not shown: His6, N-terminal, cleaved; lipo domain, N-terminal, cleaved) [H. sapiens NCOA1 CID (H_sapiens_NCOA1_CID_924-965)]", "Kd / nM": 55.7}
